Species on record: Rattus norvegicus
experiment.description: DrugMatrix - Regimen: Daily Repeat
Assay type: toxicity, organism-based, Sprague-Dawley
Set-up: regimen Daily Repeat, gender Male, age 6-8 weeks
condition.info: in vivo, po, 1500 mg/kg, 72 h, tissue Plasma, route oral GAVAGE, dose level High, time 3 day, vehicle .5 % CMC
quantity.kind: CREATINE PHOSPHOKINASE (u/L)

• CN(C)[C@@H]1C(O)=C(C(N)=O)C(=O)[C@@]2(O)C(O)=C3C(=O)c4c(O)ccc(Cl)c4[C@@](C)(O)[C@H]3C[C@@H]12 [CHLORTETRACYCLINE] = 633
• CC(C)=CCC/C(C)=C/CO [GERANIOL] = 471.33
• CC(C)Oc1ccc2c(=O)c(-c3ccccc3)coc2c1 [IPRIFLAVONE] = 256.33
• O=c1cnn([C@@H]2O[C@H](CO)[C@@H](O)[C@H]2O)c(=O)[nH]1 [6-AZAURIDINE] = 704
• COC(=O)Nc1nc2ccc([S+]([O-])c3ccccc3)cc2[nH]1 (stereo not given) [OXFENDAZOLE] = 217.33

The measured values listed here are drawn from ChEMBL document CHEMBL3885881.
